Data provenance is patent US11053204B2.

Entries annotated with measured Plant response rating, Johnsongrass
tested on: johnsongrass (Sorghum halepense); experiment: Test C preemergence, plant response rating; format: in vivo; conditions: 62 g ai/ha, scale 0 to 100
Answer as a number with no unit attached.

Worked examples, 5 compounds total:
[[record]]
smiles_code = "O=C(CCCC(F)(F)F)c1c(Cl)cccc1Oc1ncc(Cl)cn1"
reported_result = 50

[[record]]
smiles_code = "N#Cc1cccc(Oc2ncc(Cl)cn2)c1C(=O)OCCC(F)(F)F"
reported_result = 0

[[record]]
smiles_code = "O=C(CCCC(F)(F)F)c1c(Oc2ncc(Cl)cn2)cccc1C(F)(F)F"
reported_result = 60

[[record]]
smiles_code = "CCCCC(=O)c1c(Oc2ncc(Cl)cn2)cccc1C(F)(F)F"
reported_result = 70

[[record]]
smiles_code = "O=C(OCCC(F)(F)F)c1c(Br)cccc1Oc1ncc(Cl)cn1"
reported_result = 80


Let us move to another entry and its Plant response rating, Johnsongrass.
## Input For the compound `N#Cc1cccc(Oc2ncc(Cl)cn2)c1CCCCC(F)(F)F` , what Plant response rating, Johnsongrass is on record?
## Output 80
